Test Details: Pharmacokinetic profile in mice
Type: in vivo
Test Parameters: mouse; fasted male Hilltop mice, 10 mg/kg oral gavage, plasma, mean of three mice
Quantity Kind: Cmax (ng/mL)

> print(dat)
                                   molecule  quantity.kind  measurement.units  quantitative.readout
1  Cc1cnccc1-c1cccc(C(C)(C)N(CCCNC(=O)NCS(=O)(=O)O)S(=O)(=O)c2cccc(Cl)c2C)c1 [Compound 29]           Cmax              ng/mL                   2.5

A. Cc1cnccc1-c1cccc([C@H](C)N(CCCCNC(=O)[C@@H](N)CS(=O)(=O)O)S(=O)(=O)c2ccccc2C(F)(F)F)c1 [Compound 31AC]
B. Cc1cnccc1-c1cccc(C(C)(C)N(CCCC(=O)NCCS(=O)(=O)NCC(=O)O)S(=O)(=O)c2cccc(Cl)c2C)c1 [Compound 20AW]
Of A versus B , which is the one with smaller reported Cmax? To answer, give the label that identifies your chosen option.
A

====

Test Details: Comparison of PK in DIO mice and lean mice
Assay type: in vivo, mouse
Test Parameters: mouse, plasma, po, Fasted Lean mice, oral administration
Quantity Kind: Cmax (nM)
Write down the numeric answer in nM and omit the unit.

Which Cmax reading was recorded for the compound Cc1cnccc1-c1cccc(C(C)(C)N(CCCC(=O)NCCS(=O)(=O)O)S(=O)(=O)c2ccccc2C(F)(F)F)c1 [Compound 20AA] ?
7.2

====

Assay Target: human TGR5 receptor (Homo sapiens, UniProt Q8TDU6)
Test Details: Human TGR5 cAMP production assay
Test Parameters: human TGR5, luminescent cAMP assay; coded A-D; read-out: Human TGR5 Lum. cAMP Activity (EC50)
Documented EC50 across a set of compounds

> print(dat)
                        structure.as.smiles                              assay.target            result
1  CCc1cnccc1-c1cccc(C(C)(C)NS(=O)(=O)c2ccccc2[N+](=O)[O-])c1  human TGR5 receptor (Homo sapiens, UniProt Q8TDU6)          < 100 nM
2  Cc1cncc(C)c1-c1cccc(C(C)(C)NS(=O)(=O)c2cccc(C(F)(F)F)c2)c1  human TGR5 receptor (Homo sapiens, UniProt Q8TDU6)  1000 to 30000 nM
3  Cc1c(Cl)cccc1S(=O)(=O)N[C@@H](C)c1cccc(-c2ccnn2C)c1  human TGR5 receptor (Homo sapiens, UniProt Q8TDU6)     100 to 999 nM
4  C[C@@H](NS(=O)(=O)c1cccc(C(F)(F)F)c1)c1cccc(-c2ccncc2)c1  human TGR5 receptor (Homo sapiens, UniProt Q8TDU6)     100 to 999 nM

EC50 lookup needed for COc1cnccc1-c1cccc(C(C)(C)NS(=O)(=O)c2cc(Br)cc(C(F)(F)F)c2)c1 , thanks.
100 to 999 nM

Same question, C[C@H](NS(=O)(=O)c1ccccc1C(F)(F)F)c1cccc(-c2ccncc2Cl)c1 this time
< 100 nM

Also check O=S(=O)(NCc1cccc(-c2ccncc2)c1)c1ccccc1Cl
1000 to 30000 nM

Moving on to O=S(=O)(NCc1cccc(-c2ccncc2)c1)c1ccccc1F
1000 to 30000 nM

====

Assay Target: mouse TGR5 receptor (Mus musculus, UniProt Q80SS6)
Construct: expressed in transfected cells; host or cells: HEK293-EBNA (293 c18, ATCC CRL10852), Hygromycin B selection
Sequence (Q80SS6 whole entry): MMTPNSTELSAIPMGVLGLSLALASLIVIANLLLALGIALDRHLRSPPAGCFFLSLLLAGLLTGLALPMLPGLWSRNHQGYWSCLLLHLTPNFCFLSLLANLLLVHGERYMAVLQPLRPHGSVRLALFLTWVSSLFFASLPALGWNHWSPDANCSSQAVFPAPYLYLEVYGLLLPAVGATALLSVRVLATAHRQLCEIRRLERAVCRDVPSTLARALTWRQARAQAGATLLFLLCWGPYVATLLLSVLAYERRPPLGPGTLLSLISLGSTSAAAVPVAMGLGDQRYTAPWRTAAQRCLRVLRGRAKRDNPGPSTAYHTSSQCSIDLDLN
Test Details: Mouse TGR5 cAMP production assay (HTRF, Cisbio cAMP HiRange)
Type: cell-based
Test Parameters: HEK293-EBNA cells overexpressing mouse TGR5, HTRF cAMP HiRange; coded A-D
Quantity Kind: EC50

// solved cases for EC50 follow
> print(dat)
                                   compound  quantity.kind            result
1  Cc1cnccc1-c1cccc(C(C)(C)N(CCCC(=O)NCC(=O)O)S(=O)(=O)c2cccc(Cl)c2C)c1 [Compound 21AB]           EC50          < 100 nM
2  CC(C)(NS(=O)(=O)c1cccc(C(F)(F)F)c1)c1cccc(-c2ccc3nccn3c2)c1 [Compound 5AF]           EC50  1000 to 30000 nM
3  Cc1cnccc1-c1cccc([C@@H](C)N(CCCC(=O)O)S(=O)(=O)c2cccc(Cl)c2C)c1 [Compound 16AA]           EC50  1000 to 30000 nM

Next compound, please.
Look at this compound and give its reported EC50. Cc1cnccc1-c1cccc(C2CN(CCCC(=O)NCS(=O)(=O)O)CCN2S(=O)(=O)c2cccc(Cl)c2C)c1 (stereo not shown) [Compound 53]
< 100 nM

====

Assay Target: human TGR5 receptor (Homo sapiens, UniProt Q8TDU6)
Sequence (Q8TDU6 1-330): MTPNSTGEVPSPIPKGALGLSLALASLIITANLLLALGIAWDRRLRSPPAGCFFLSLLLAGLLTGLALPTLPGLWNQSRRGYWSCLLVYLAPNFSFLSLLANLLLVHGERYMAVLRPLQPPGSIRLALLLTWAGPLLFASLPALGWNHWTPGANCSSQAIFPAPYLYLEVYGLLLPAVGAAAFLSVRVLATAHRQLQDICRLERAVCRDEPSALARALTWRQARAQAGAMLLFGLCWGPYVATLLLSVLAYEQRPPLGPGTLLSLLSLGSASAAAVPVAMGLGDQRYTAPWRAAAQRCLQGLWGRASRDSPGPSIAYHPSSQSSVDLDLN
Test Details: Human TGR5 cAMP production assay
Test Parameters: human TGR5, luminescent cAMP assay; coded A-D; read-out: Human TGR5 Lum. cAMP Activity (EC50)
Below: a set of entries, each annotated with reported EC50.

Example molecules with recorded EC50:
> print(dat)
                                   molecule            result
1  Cc1cnccc1-c1cccc(C(CCCCN)NS(=O)(=O)c2ccccc2C(F)(F)F)c1 (stereo not shown) [Compound 24AA]  1000 to 30000 nM
2  COc1cnccc1-c1cccc([C@H](C)NS(=O)(=O)c2cccc(C(F)(F)F)c2)c1          < 100 nM
3  COc1cccc(S(=O)(=O)NCc2cccc(-c3ccncc3)c2)c1  1000 to 30000 nM
4  Cc1cnccc1-c1cccc([C@H](C)N(CCCC(=O)NCCS(N)(=O)=O)S(=O)(=O)c2cccc(Cl)c2C)c1 [Compound 20AJ]          < 100 nM
5  Cc1cnccc1-c1cccc(C(C)(C)N(CCCNS(=O)(=O)CCN)S(=O)(=O)c2cccc(Cl)c2C)c1          < 100 nM

What measured EC50 goes with Cc1cnccc1-c1cccc(C(CCCCNC(=O)NCCS(=O)(=O)O)NS(=O)(=O)c2ccccc2C(F)(F)F)c1 (stereo not shown) [Compound 28AG] ?
100 to 999 nM

Check Cc1cnccc1-c1cccc([C@H](C)N(CCCC(=O)NCCS(=O)(=O)O)S(=O)(=O)c2ccccc2C)c1 [Compound 20AQ] too.
< 100 nM

====

Test Details: Comparison of PK in DIO mice and lean mice
Assay type: in vivo, mouse
Test Parameters: C57BL/6N, mouse, plasma, po, 10 mg/kg, Non-fasted Lean mice, 10 mg/kg oral; read-out: AUC (0-4 h)
Procedure: Comparison of PK in DIO Mice and Lean Mice The PK characteristics of Compound 20AA were examined in non-fasted lean C57BL/6N and DIO mice (Taconic). Compound 20AA was orally administered to both groups at 10 mg/kg by oral gavage and plasma concentration of the compound was determined as described in Example 59. […]
Quantity Kind: AUC(0-t) (ng·h/mL)
Express your answer in ng·h/mL, writing the number without its unit.

Consider the compound Cc1cnccc1-c1cccc(C(C)(C)N(CCCC(=O)NCCS(=O)(=O)O)S(=O)(=O)c2ccccc2C(F)(F)F)c1 [Compound 20AA] and give its measured AUC(0-t).
4

====

Assay Target: mouse TGR5 receptor (Mus musculus, UniProt Q80SS6)
Construct: expressed in transfected cells; host or cells: HEK293-EBNA (293 c18, ATCC CRL10852), Hygromycin B selection
Test Details: Mouse TGR5 cAMP production assay (HTRF, Cisbio cAMP HiRange)
Format: cell-based
Test Parameters: HEK293-EBNA cells overexpressing mouse TGR5, HTRF cAMP HiRange; coded A-D
Counter-ions that a name gives are not always drawn.
Quantity Kind: EC50

Recorded results for 3 molecules are shown here.
Molecule	EC50
COC(=O)CN(C(C)(C)c1cccc(-c2ccncc2C)c1)S(=O)(=O)c1ccccc1C(F)(F)F	100 to 999 nM
Cc1cnccc1-c1cccc(C2CCCN2S(=O)(=O)c2ccccc2C(F)(F)F)c1 (racemic)	100 to 999 nM
CCc1cnccc1-c1cccc(C2CN(C(=O)[C@@H](N)CS(=O)(=O)O)CCN2S(=O)(=O)c2cccc(Cl)c2C)c1 (mixture of isomers) [Compound 48, hydrochloride]	< 100 nM

Return reported EC50; argument: COc1cnccc1-c1cccc(C(C)(C)NS(=O)(=O)c2cccc(Cl)c2Cl)c1
< 100 nM

How about Cc1cnccc1-c1cccc([C@H](C)N(CCCC(=O)O)S(=O)(=O)c2ccccc2C(F)(F)F)c1 ?
100 to 999 nM

Now try CCc1cnccc1-c1cccc([C@H](C)N(CCCC(=O)O)S(=O)(=O)c2cccc(Cl)c2C)c1 [Compound 16AB] .
< 100 nM

Then COc1cnccc1-c1cccc(C(C)(C)NS(=O)(=O)c2cccc(Cl)c2C)c1 ?
< 100 nM
